- system: T1, hiR2-FL-D535A-T7 (human, UniProt Q6PJF5 1-856)
- T1 sequence: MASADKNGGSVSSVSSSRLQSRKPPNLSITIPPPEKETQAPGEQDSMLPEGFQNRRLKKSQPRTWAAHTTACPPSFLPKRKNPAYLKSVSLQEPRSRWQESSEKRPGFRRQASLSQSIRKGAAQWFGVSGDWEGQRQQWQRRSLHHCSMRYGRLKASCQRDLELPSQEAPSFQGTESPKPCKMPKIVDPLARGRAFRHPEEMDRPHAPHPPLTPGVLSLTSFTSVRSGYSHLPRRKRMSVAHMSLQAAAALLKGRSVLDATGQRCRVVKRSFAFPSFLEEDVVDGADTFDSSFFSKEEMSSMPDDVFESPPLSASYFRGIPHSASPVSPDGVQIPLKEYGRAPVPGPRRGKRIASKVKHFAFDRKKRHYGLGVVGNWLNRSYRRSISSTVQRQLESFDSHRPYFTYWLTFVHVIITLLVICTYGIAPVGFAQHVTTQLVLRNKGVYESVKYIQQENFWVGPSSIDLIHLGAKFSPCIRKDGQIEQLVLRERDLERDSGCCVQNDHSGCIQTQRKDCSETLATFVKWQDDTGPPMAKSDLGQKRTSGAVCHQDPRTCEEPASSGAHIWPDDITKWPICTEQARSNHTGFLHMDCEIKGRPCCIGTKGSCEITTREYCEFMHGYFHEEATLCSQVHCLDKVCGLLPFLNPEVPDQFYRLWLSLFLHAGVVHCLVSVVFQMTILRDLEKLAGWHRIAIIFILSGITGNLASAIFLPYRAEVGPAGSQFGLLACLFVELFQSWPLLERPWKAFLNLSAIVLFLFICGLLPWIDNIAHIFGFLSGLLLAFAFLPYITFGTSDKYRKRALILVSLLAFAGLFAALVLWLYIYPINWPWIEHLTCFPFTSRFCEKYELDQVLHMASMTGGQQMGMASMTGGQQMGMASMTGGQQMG
- test.details: FACS on MEF-DKO cells expressing the variant, 3 µg/ml antibody
- Protocol: To pellet cells and remove supernatants, the plates were centrifuged at 1,500 rpm and 4° C. for 3 minutes. […] Finally, cells were resuspended in 150 μl per well of FACS buffer and analyzed using a BD Accuri™ C6 Plus flow cytometer (Becton Dickinson, Germany).
endpoint: loss of binding vs wild type

INSERT INTO results (binder, result) VALUES
  ('antibody 3 (antibody, V domains shown, mouse IgG, kappa light chain; also called clone #3; purified antibody 3) VH: QVTLKESGPGILQPSQTLSLTCSFSGFSLTTFAMGIGWVRQPSGKGLEWLAHIWWDGEKYNNPVLKSRLTISKDTSKNQVFLRIANVDTPDTATYYCARISSIYYIIDNWGQGTSVTVSS VL: DIVLTQSPATLSVTPGHSVSLSCRASQSISNNLHWYQKKSHESPRLLIKYVSQSISGIPSRFSGSGSGTDFTLSINSVETEDFGMYFCQQSYNWPLTFGAGTKLELK', '≥ 60%'),
  ('antibody 5 (antibody, V domains shown, mouse IgG, kappa light chain; also called clone #5; purified antibody 5) VH: QVTLKESGPGILQPSQTLSLTCSFSGFSLSTFGMGVGWIRQPSGKGLEWLAHIWWDDEKYYNSALKSRLTISKATSKNQAFLKIANVDTADTATYYCARISNYGSNYWYFNVWGTGTTVTVSS VL: QVVLTQSPALMSASPGEKVTMTCSAGSSVSCMYWYQQKPGSSPRVLIYDTSNLASGVPARFTGSGSGTSYSLTISRMEAEDAASYYCQQWNSYPLTFGAGTKLELK', '≥ 60%'),
  ('antibody 22 (antibody, V domains shown, mouse IgG, kappa light chain; also called clone #22; purified antibody 22) VH: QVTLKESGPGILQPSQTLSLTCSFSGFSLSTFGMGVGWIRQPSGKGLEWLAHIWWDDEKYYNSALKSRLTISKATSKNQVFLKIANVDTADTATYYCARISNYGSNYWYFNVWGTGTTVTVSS VL: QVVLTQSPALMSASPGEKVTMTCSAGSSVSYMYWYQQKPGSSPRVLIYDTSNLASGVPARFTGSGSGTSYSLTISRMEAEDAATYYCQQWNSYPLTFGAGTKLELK', '≥ 30%');
